From: ChEMBL document CHEMBL3875163

Reported values of MIC50 for individual entries
System: Staphylococcus aureus
Experiment: Antibacterial activity against methicillin sensitive Staphylococcus aureus ATCC 25923 after 18 hrs by serial microdilution broth assay
Assay type: functional
Details: ATCC 25923, 18 h

COMPOUND | RELATION SYMBOL | MIC50 [µg/mL]
COc1cc(NC(C)CCCNC(=O)Nc2ccc(C(F)(F)F)cc2)c2ncccc2c1 (stereo unspecified) | = | 35
CN(C)[C@@H]1C(O)=C(C(N)=O)C(=O)[C@@]2(O)C(O)=C3C(=O)c4c(O)cccc4[C@@](C)(O)[C@H]3C[C@@H]12 | = | 0.312
COc1cc(NC(C)CCCNC(=O)Nc2cccc(O)c2)c2ncccc2c1 (stereo unspecified) | = | 50
COc1cc(NC(C)CCCNC(=O)Nc2cc(C(F)(F)F)cc(C(F)(F)F)c2)c2ncccc2c1 (stereo unspecified) | = | 6.3
COc1cc(NC(C)CCCNC(=O)Nc2ccc(Br)cc2)c2ncccc2c1 (stereo unspecified) | > | 100
COc1cc(NC(C)CCCN)c2ncccc2c1 (stereo unspecified) | = | 70

###

Test system: Glycine max
Test: Inhibition of soybean LOX assessed as reduction in conversion of sodium linoleate to 13-hydroperoxylinoleic acid at 1 x 10^-4 M relative to control
Think of 40% as a floor: if inhibition stands on it or above, it is y; beneath it, n.

COMPOUND | CLASSIFICATION
COc1cc(NC(C)CCCNC(=O)Nc2cccc(Cl)c2)c2ncccc2c1 (stereo not given) | n
COc1cc(NC(C)CCCNC(=O)NNC(=O)Nc2cccc(O)c2)c2ncccc2c1 (stereo not given) | y
COc1cc(NC(C)CCCNC(=O)Nc2ccc(Cl)cc2)c2ncccc2c1 (stereo not given) | n
COc1cc(NC(C)CCCNC(=O)NNC(=O)Nc2cccc(C(F)(F)F)c2)c2ncccc2c1 (stereo not given) | y
COc1cc(NC(C)CCCNC(=O)NNC(=O)Nc2cccc(Cl)c2)c2ncccc2c1 (stereo not given) | y
COc1cc(NC(C)CCCNC(=O)NNC(=O)Nc2ccc(O)cc2)c2ncccc2c1 (stereo not given) | n
COc1cc(NC(C)CCCNC(=O)Nc2ccc(C(F)(F)F)cc2)c2ncccc2c1 (stereo not given) | n
COc1cc(NC(C)CCCNC(=O)Nc2ccc(O)cc2)c2ncccc2c1 (stereo not given) | y
COc1cc(NC(C)CCCNC(=O)Nc2cc(C(F)(F)F)cc(C(F)(F)F)c2)c2ncccc2c1 (stereo not given) | y

###

Assay: Hemolytic activity against human RBC at 100 ug/ml after 1 hr relative to control
Format: ADME, cell-based, Erythrocyte
Settings: red blood cells (RBC), read-out: Activity

MOLECULE | hemolysis at 1 h, 100 ug/ml
COc1cc(NC(C)CCCNC(=O)Nc2cc(C(F)(F)F)cc(C(F)(F)F)c2)c2ncccc2c1 (centres undefined) | < 1%
COc1cc(NC(C)CCCNC(=O)Nc2cccc(O)c2)c2ncccc2c1 (centres undefined) | < 1%
COc1cc(NC(C)CCCNC(=O)Nc2ccc(Br)cc2)c2ncccc2c1 (centres undefined) | < 1%
COc1cc(NC(C)CCCNC(=O)Nc2ccc(C(F)(F)F)cc2)c2ncccc2c1 (centres undefined) | 7.85%

###

Tested on: Glycine max
Assay: Inhibition of soybean LOX assessed as reduction in conversion of sodium linoleate to 13-hydroperoxylinoleic acid at 1 x 10^-4 M relative to control
Think of 40% as a floor: if inhibition stands on it or above, it is fulfilled; beneath it, not fulfilled.

COMPOUND | CLASSIFICATION
COc1cc(NC(C)CCCNC(=O)NNC(=O)Nc2ccc(F)cc2)c2ncccc2c1 (stereo unspecified) | not fulfilled
COc1cc(NC(C)CCCNC(=O)Nc2cccc(C(F)(F)F)c2)c2ncccc2c1 (stereo unspecified) | fulfilled
COc1cc(NC(C)CCCNC(=O)NNC(=O)Nc2cc(C(F)(F)F)cc(C(F)(F)F)c2)c2ncccc2c1 (stereo unspecified) | not fulfilled
COc1cc(NC(C)CCCNC(=O)Nc2cccc(O)c2)c2ncccc2c1 (stereo unspecified) | fulfilled
CC(Cc1ccc(O)c(O)c1)C(C)Cc1ccc(O)c(O)c1 (stereo unspecified) [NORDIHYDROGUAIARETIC ACID] | fulfilled
COc1cc(NC(C)CCCNC(=O)Nc2ccc(Br)cc2)c2ncccc2c1 (stereo unspecified) | not fulfilled
COc1cc(NC(C)CCCNC(=O)Nc2cccc(F)c2)c2ncccc2c1 (stereo unspecified) | fulfilled
COc1cc(NC(C)CCCNC(=O)NNC(=O)Nc2ccc(Br)cc2)c2ncccc2c1 (stereo unspecified) | not fulfilled
COc1cc(NC(C)CCCNC(=O)NNC(=O)Nc2ccc(C(F)(F)F)cc2)c2ncccc2c1 (stereo unspecified) | fulfilled
COc1cc(NC(C)CCCNC(=O)NNC(=O)Nc2cccc(F)c2)c2ncccc2c1 (stereo unspecified) | fulfilled
